Data origin, for the record: ChEMBL document CHEMBL3588747

assay: Solubility of the compound in cell growth medium up to 200 uM after 24 hrs by upright light microscopy; assay type: physicochemical
experimentalEndpoint: solubility

structurenotation=Cn1cc(CN2C[C@H](OCc3cccnc3)CN(Cc3ccc(C#CC(C)(C)O)cc3)CC2=O)cn1 measvalue=soluble
structurenotation=CCCn1ncc(CN2CCN(CCCc3ccccc3)[C@@H](CCO)C2)c1C measvalue=soluble
structurenotation=O=C(N[C@H](Cc1ccc2c(c1)OCO2)C(=O)N[C@@H](Cc1c[nH]c2ccccc12)C(=O)O)c1ccccc1 measvalue=soluble
structurenotation=O=C1CC[C@](CCC(=O)N2CCC([C@@H](O)c3cccnc3)CC2)(Cc2cccc3ccccc23)N1 measvalue=soluble
structurenotation=COc1ccc(OC[C@@H](O)CN2CCC(O)CC2)c(CNCCc2cccnc2)c1 measvalue=soluble
structurenotation=CC(C)(O)C#Cc1ccc(CN2CCC[C@@H](CCC(=O)N3CCOCC3)C2)s1 measvalue=soluble
structurenotation=CCn1c(-c2cccnc2)nc2cc(NC(=O)COC)cc(C(=O)NCc3ccccc3)c21 measvalue=soluble
structurenotation=O=C(NCc1cccc(F)c1)[C@@H]1CCC(=O)N(CCCN2CCCC2=O)C1 measvalue=soluble
structurenotation=O=C(NCc1ccccc1)c1nn(CCO)c2c1CN(C1CCCC1)CC2 measvalue=soluble
structurenotation=COc1cccc(CO[C@H]2CN(CCc3ccccc3)C(=O)CN(C(=O)[C@@H]3CNC(=O)C3)C2)c1 measvalue=soluble
structurenotation=Cc1n[nH]c(O)c1C(c1ccc(-c2ccccc2C(=O)O)o1)c1c(C)n[nH]c1O measvalue=soluble

====

Target: Inhibin beta A chain (Mus musculus)
Sequence (Q04998 whole entry): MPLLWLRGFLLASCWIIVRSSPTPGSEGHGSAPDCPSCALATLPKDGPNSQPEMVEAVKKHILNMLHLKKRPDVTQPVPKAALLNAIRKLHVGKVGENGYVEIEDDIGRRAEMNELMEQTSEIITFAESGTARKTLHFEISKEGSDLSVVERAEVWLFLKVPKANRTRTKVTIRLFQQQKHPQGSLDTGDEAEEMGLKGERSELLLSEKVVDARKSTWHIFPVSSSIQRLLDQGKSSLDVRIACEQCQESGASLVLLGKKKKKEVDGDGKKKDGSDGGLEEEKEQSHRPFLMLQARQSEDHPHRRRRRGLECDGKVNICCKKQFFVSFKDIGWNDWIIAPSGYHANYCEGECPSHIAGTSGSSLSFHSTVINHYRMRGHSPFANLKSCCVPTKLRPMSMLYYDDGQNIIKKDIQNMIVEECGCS
Assay: Antagonist activity at activin A in mouse LbetaT2 cells transfected with -338 promoter region of FSHbeta gene conjugated to luciferase reporter assessed as inhibition of FSHbeta promoter activation by luciferase assay
pIC50: −log10 of the molar value.
Listing of entries alongside the reported pIC50.
experimentalEndpoint: pIC50

structurenotation=COc1ccc(OC[C@@H](O)CN2CCC(O)CC2)c(CNCCc2cccnc2)c1 testtarget="Inhibin beta A chain (Mus musculus)" experimentalendpoint=pIC50 readoutrelation== measvalue=5.38
structurenotation=CCn1c(-c2cccnc2)nc2cc(NC(=O)COC)cc(C(=O)NCc3ccccc3)c21 testtarget="Inhibin beta A chain (Mus musculus)" experimentalendpoint=pIC50 readoutrelation== measvalue=5.44
structurenotation=Cn1cc(CN2C[C@H](OCc3cccnc3)CN(Cc3ccc(C#CC(C)(C)O)cc3)CC2=O)cn1 testtarget="Inhibin beta A chain (Mus musculus)" experimentalendpoint=pIC50 readoutrelation== measvalue=5.37
structurenotation=O=C1CC[C@](CCC(=O)N2CCC([C@@H](O)c3cccnc3)CC2)(Cc2cccc3ccccc23)N1 testtarget="Inhibin beta A chain (Mus musculus)" experimentalendpoint=pIC50 readoutrelation== measvalue=4.63
structurenotation=CCCn1ncc(CN2CCN(CCCc3ccccc3)[C@@H](CCO)C2)c1C testtarget="Inhibin beta A chain (Mus musculus)" experimentalendpoint=pIC50 readoutrelation=< measvalue=4.00
structurenotation=O=C(NCc1ccccc1)c1nn(CCO)c2c1CN(C1CCCC1)CC2 testtarget="Inhibin beta A chain (Mus musculus)" experimentalendpoint=pIC50 readoutrelation=< measvalue=4.00
structurenotation=O=C(N[C@H](Cc1ccc2c(c1)OCO2)C(=O)N[C@@H](Cc1c[nH]c2ccccc12)C(=O)O)c1ccccc1 testtarget="Inhibin beta A chain (Mus musculus)" experimentalendpoint=pIC50 readoutrelation=< measvalue=4.00
structurenotation=Cc1n[nH]c(O)c1C(c1ccc(-c2ccccc2C(=O)O)o1)c1c(C)n[nH]c1O testtarget="Inhibin beta A chain (Mus musculus)" experimentalendpoint=pIC50 readoutrelation=< measvalue=4.00
structurenotation=COc1cccc(CO[C@H]2CN(CCc3ccccc3)C(=O)CN(C(=O)[C@@H]3CNC(=O)C3)C2)c1 testtarget="Inhibin beta A chain (Mus musculus)" experimentalendpoint=pIC50 readoutrelation=< measvalue=4.00
structurenotation=O=C(NCc1cccc(F)c1)[C@@H]1CCC(=O)N(CCCN2CCCC2=O)C1 testtarget="Inhibin beta A chain (Mus musculus)" experimentalendpoint=pIC50 readoutrelation=< measvalue=4.00
structurenotation=CC(C)(O)C#Cc1ccc(CN2CCC[C@@H](CCC(=O)N3CCOCC3)C2)s1 testtarget="Inhibin beta A chain (Mus musculus)" experimentalendpoint=pIC50 readoutrelation== measvalue=5.35
